# PROTOCOL_DETAILS: chemical genetic growth profiling, strain panel (AID 1159580);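 further: tested at 20 µM; growth read once vehicle control cultures reached saturation at 30 °C; 1 = growth at the plate median or of vehicle wells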
# ASSAY_CONDITIONS: S. cerevisiae deletion strains, growth OD, locus YKL085W, strain MDH1
The whole screen tested about 5,500 compounds, of which about 2,000 (36%) were called active. Not shown: some 18% with an inconclusive outcome. No stated cut-off is given here; in the data, active means normalized growth mostly below about 0.91 (no sharp cut-off); inconclusive means no clear call, values can overlap the other calls; inactive means mostly above about 0.92. This is one part of the list.
Labels: Yes (active), No (inactive)

[
  {
    "COMPOUND": "O=C(Oc1cc(O)cc2c1C[C@@H](OC(=O)c1cc(O)c(O)c(O)c1)[C@@H](c1cc(O)c(O)c(O)c1)O2)c1cc(O)c(O)c(O)c1",
    "CAT": "No"
  },
  {
    "COMPOUND": "COc1ccc(OC)c(C(O)CNC(=O)CN)c1 (configuration not stated)",
    "CAT": "No"
  },
  {
    "COMPOUND": "COc1ccc2c(c1)OC/C(=C/c1ccc(OC)c(OC)c1)C2=O",
    "CAT": "No"
  },
  {
    "COMPOUND": "COc1c(N2CCNC(C)C2)c(F)cc2c(=O)c(C(=O)O)cn(C3CC3)c12 (configuration not stated)",
    "CAT": "No"
  },
  {
    "COMPOUND": "COc1ccccc1-c1coc2cc(O)ccc2c1=O",
    "CAT": "No"
  },
  {
    "COMPOUND": "O=C1CCC(N2C(=O)c3ccccc3C2=O)C(=O)N1 (configuration not stated)",
    "CAT": "No"
  },
  {
    "COMPOUND": "COc1ccc(-c2coc3cc(O)ccc3c2=O)cc1",
    "CAT": "No"
  },
  {
    "COMPOUND": "C=CCc1ccc(OC(=O)c2ccccc2)c(OC)c1",
    "CAT": "No"
  },
  {
    "COMPOUND": "CC1COc2c(N3CCN(C)CC3)c(F)cc3c(=O)c(C(=O)O)cn1c23 (configuration not stated)",
    "CAT": "No"
  },
  {
    "COMPOUND": "O=C(Oc1cc(OC(=O)c2ccccc2)c2c(c1)O[C@H](c1ccc(OC(=O)c3ccccc3)c(OC(=O)c3ccccc3)c1)[C@@H](OC(=O)c1ccccc1)C2)c1ccccc1",
    "CAT": "No"
  },
  {
    "COMPOUND": "O=C(OCC(O)CO)c1ccccc1Nc1ccnc2cc(Cl)ccc12 (configuration not stated)",
    "CAT": "No"
  },
  {
    "COMPOUND": "COc1ccc(-c2coc3cc(O)ccc3c2=O)c(OC)c1O",
    "CAT": "No"
  },
  {
    "COMPOUND": "CC(C)NCC(O)COc1cccc2[nH]ccc12 (configuration not stated)",
    "CAT": "No"
  },
  {
    "COMPOUND": "COc1ccc(-c2coc3cc(OC)ccc3c2=O)cc1",
    "CAT": "Yes"
  },
  {
    "COMPOUND": "C[C@H]1COc2c(N3CCN(C)CC3)c(F)cc3c(=O)c(C(=O)O)cn1c23",
    "CAT": "No"
  },
  {
    "COMPOUND": "COc1ccc(-c2coc3cc(O)ccc3c2=O)c(OC)c1",
    "CAT": "No"
  },
  {
    "COMPOUND": "COc1cc(OC)c2c(c1)O[C@H](c1cc(OC)c(OC)c(OC)c1)[C@H](OC(=O)c1cc(OC)c(OC)c(OC)c1)C2",
    "CAT": "No"
  },
  {
    "COMPOUND": "COc1ccc(C(=O)O)cc1OC",
    "CAT": "No"
  },
  {
    "COMPOUND": "NCCC(O)C(=O)NC1CC(N)C(OC2OC(CN)C(O)C(O)C2N)C(OC2OC(CO)C(O)C2O)C1O (configuration not stated)",
    "CAT": "No"
  },
  {
    "COMPOUND": "O=c1c(-c2ccc(O)cc2)coc2cc(O)ccc12",
    "CAT": "No"
  },
  {
    "COMPOUND": "CCN(CC)Cc1ccc(Nc2ccnc3cc(Cl)ccc23)cc1O",
    "CAT": "No"
  },
  {
    "COMPOUND": "NCCCS(=O)(=O)O",
    "CAT": "No"
  }
]

* * *

# PROTOCOL_DETAILS: chemical genetic growth profiling, strain panel (AID 1159580);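 further: tested at 20 µM; growth read once vehicle control cultures reached saturation at 30 °C; 1 = growth at the plate median or of vehicle wells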
# ASSAY_CONDITIONS: S. cerevisiae deletion strains, growth OD, locus YPL240C, strain hsp82, stronger effect = lower value
Among all 5,500 compounds or so, about 2,000 (36%) were called active. Not shown: some 18% with an inconclusive outcome. The list shows a part of the results.
Decide using normalized growth alone. Strictly below 1: MET. Equal to or above 1: NOT MET.

[
  {
    "COMPOUND": "NCCCS(=O)(=O)O",
    "CAT": "NOT MET"
  },
  {
    "COMPOUND": "CC[C@]1(O)CC2CN(CCc3c([nH]c4ccccc34)[C@@](C(=O)OC)(c3cc4c(cc3OC)N(C)[C@H]3[C@@](O)(C(=O)OC)[C@H](OC(C)=O)[C@]5(CC)C=CCN6CC[C@]43[C@@H]65)C2)C1 (some centres undefined)",
    "CAT": "MET"
  },
  {
    "COMPOUND": "c1ccc2c(c1)sc1ccccc12",
    "CAT": "MET"
  }
]

* * *

Measured normalized growth accompanies every entry in the list below.
# PROTOCOL_DETAILS: chemical genetic growth profiling, strain panel (AID 1159580);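 further: tested at 20 µM; growth read once vehicle control cultures reached saturation at 30 °C; 1 = growth at the plate median or of vehicle wells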
# ASSAY_CONDITIONS: S. cerevisiae deletion strains, growth OD, locus YFR028C, strain CDC14, stronger effect = lower value
In all, about 5,500 compounds went through this assay and about 2,000 (36%) were called active. Inconclusive results (about 18%) are left out. The list shows a part of the results.

[
  {
    "COMPOUND": "Cc1ccc(S(=O)(=O)NC(=O)Nc2ccc(Sc3ccccc3)nc2Sc2ccccc2)cc1",
    "normalized growth": "0.974 (inactive)"
  },
  {
    "COMPOUND": "Cc1nn(C)c(C(=O)Sc2ccc(OC(F)(F)F)cc2)c1[N+](=O)[O-]",
    "normalized growth": "0.987 (inactive)"
  },
  {
    "COMPOUND": "CC(C)(C)c1ccc(C(=N)SC(C(=O)C(F)(F)F)c2ccccc2)cc1 (stereo not drawn)",
    "normalized growth": "0.985 (inactive)"
  },
  {
    "COMPOUND": "N#C/C(=N/Nc1ccc(F)cc1)C(=O)c1ccccc1",
    "normalized growth": "0.855 (active)"
  },
  {
    "COMPOUND": "CC(=O)/C(C#N)=N\\Nc1ccc(F)cc1",
    "normalized growth": "0.699 (active)"
  },
  {
    "COMPOUND": "CC(C)(C)c1ccc(N/N=C(\\C#N)C(N)=O)cc1",
    "normalized growth": "0.108 (active)"
  },
  {
    "COMPOUND": "Oc1c(Cl)cc(Cl)cc1C=Nc1nc(-c2ccc3ccccc3c2)cs1",
    "normalized growth": "0.966 (inactive)"
  },
  {
    "COMPOUND": "Fc1cc(I)ccc1Nc1ccnc2cc(Cl)ccc12",
    "normalized growth": "0.981 (inactive)"
  },
  {
    "COMPOUND": "N/C(CCSc1ccc(Cl)cc1)=N/OC(=O)Nc1ccc(Cl)cc1",
    "normalized growth": "0.986 (inactive)"
  },
  {
    "COMPOUND": "CC(C)c1ccc(COC(=O)Nc2ccc(CSc3ccc(Cl)cc3)o2)cc1",
    "normalized growth": "0.988 (inactive)"
  },
  {
    "COMPOUND": "O=C(/C=C/c1ccc2c(c1)OCO2)Nc1ccc(Br)cc1",
    "normalized growth": "0.955 (inactive)"
  },
  {
    "COMPOUND": "O=C(Nc1cccc(C(F)(F)F)c1)c1cncc(C#Cc2ccccc2)c1",
    "normalized growth": "0.969 (inactive)"
  },
  {
    "COMPOUND": "O=C(Oc1cccc2[nH]ccc12)c1ccc(C(F)(F)F)cc1",
    "normalized growth": "0.955 (inactive)"
  },
  {
    "COMPOUND": "O=C(ON=C1CCCCC1)c1ccc([N+](=O)[O-])cc1",
    "normalized growth": "0.942 (inactive)"
  },
  {
    "COMPOUND": "O=[N+]([O-])c1ccc(-c2noc(-c3ccno3)n2)o1",
    "normalized growth": "0.0999 (active)"
  },
  {
    "COMPOUND": "N#C/C(=N/Nc1ccc(F)cc1)S(=O)(=O)c1ccc(Cl)cc1",
    "normalized growth": "0.959 (inactive)"
  },
  {
    "COMPOUND": "Cc1c(C(=O)Sc2ccc(F)cc2F)sc2nc(C(F)(F)F)nn12",
    "normalized growth": "0.0976 (active)"
  },
  {
    "COMPOUND": "CCCN(CCC)C(=S)NC(=O)c1cccc([N+](=O)[O-])c1",
    "normalized growth": "0.963 (inactive)"
  },
  {
    "COMPOUND": "Cc1cc(C)cc(Sc2ccc3nnc(-c4ccccc4)n3n2)c1",
    "normalized growth": "0.987 (inactive)"
  },
  {
    "COMPOUND": "Cc1cc(C(=O)NNS(=O)(=O)c2ccc(F)c(Cl)c2)nn1-c1c(Cl)cc(Cl)cc1Cl",
    "normalized growth": "0.979 (inactive)"
  },
  {
    "COMPOUND": "O=C(c1csc(-c2ccc(Cl)cc2)c1)N1CCCCC1",
    "normalized growth": "0.948 (inactive)"
  },
  {
    "COMPOUND": "O=C(NCc1ccc(Cl)c(Cl)c1)c1cccnc1OCC(F)(F)F",
    "normalized growth": "0.947 (inactive)"
  },
  {
    "COMPOUND": "O=[N+]([O-])c1ccc(ON=C2CCCCC2)c([N+](=O)[O-])c1",
    "normalized growth": "0.983 (inactive)"
  }
]
